Attribution: paper PMC11341970

Items are presented alongside their recorded IC50.
- assay target: UniProt:P56817
- Sequence (P56817 46-501): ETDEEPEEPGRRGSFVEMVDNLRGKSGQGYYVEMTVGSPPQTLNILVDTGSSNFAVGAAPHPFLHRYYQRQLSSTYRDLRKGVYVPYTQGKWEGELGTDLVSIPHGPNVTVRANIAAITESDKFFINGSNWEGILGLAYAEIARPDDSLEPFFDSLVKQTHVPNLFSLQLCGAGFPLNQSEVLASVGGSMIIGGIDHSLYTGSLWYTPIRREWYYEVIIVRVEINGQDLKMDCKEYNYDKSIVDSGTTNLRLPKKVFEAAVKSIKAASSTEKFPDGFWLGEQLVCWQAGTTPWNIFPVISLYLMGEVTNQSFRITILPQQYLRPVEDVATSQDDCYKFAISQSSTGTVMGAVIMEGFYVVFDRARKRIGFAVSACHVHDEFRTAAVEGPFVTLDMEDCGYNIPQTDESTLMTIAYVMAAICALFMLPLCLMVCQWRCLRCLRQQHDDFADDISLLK
- protocol description: BACE 1 inhibition assay
- Assay type: biochemical
Write the number in µM without appending the unit.

Study these solved cases before continuing.
{"molecule": "[H]/N=C(/N)NN=C(/C=C/c1ccccc1)c1cccn1Cc1cc(F)ccc1C [Compound 2p]", "assay target": "UniProt:P56817", "IC50 / µM": 145}
{"molecule": "[H]/N=C(/N)NN=C(/C=C/c1ccccc1)c1cccn1Cc1cc(OC)cc(OC)c1 [Compound 2a]", "assay target": "UniProt:P56817", "IC50 / µM": 95.8}
{"molecule": "[H]/N=C(/N)NN=C(/C=C/c1ccccc1)c1cccn1Cc1ccc(C(C)C)cc1 [Compound 2r]", "assay target": "UniProt:P56817", "IC50 / µM": 191}
{"molecule": "[H]/N=C(/N)NN=C(/C=C/c1ccc(C(C)(C)C)cc1)c1cccn1Cc1ccc(C(C)(C)C)cc1 [Compound 3k]", "assay target": "UniProt:P56817", "IC50 / µM": 178}
{"molecule": "[H]/N=C(/N)NN=C(/C=C/c1ccc(C(C)(C)C)cc1)c1cccn1Cc1ccc(-c2ccccc2)cc1 [Compound 3g]", "assay target": "UniProt:P56817", "IC50 / µM": 185}

Ask: Would you kindly share the measured IC50 for [H]/N=C(/N)NN=C(/C=C/c1ccccc1)c1cccn1Cc1ccc(C)cc1 [Compound 2f] ?
Result: 85.7

Ask: Would you kindly share the measured IC50 for [H]/N=C(/N)NN=C(/C=C/c1ccccc1)c1cccn1Cc1cccc(C#N)c1 [Compound 2o] ?
Result: 148

Ask: Would you kindly share the measured IC50 for [H]/N=C(/N)NN=C(/C=C/c1ccc(OC)c(OC)c1)c1cccn1Cc1ccccc1 [Compound 1g] ?
Result: 114
